Entry source: PubChem BioAssay AID371

experiment: A549 NSCLC cell proliferation inhibitors – ATP luminescence, human non-small cell lung line, primary screen (AID 371); conditions: at 10 µM, active compounds read high;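 also: compound exposure lasted 72 h before the ATP read; 0% = untreated cell signal and 100% = no luminescence left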
About 280 (8.5%) of roughly 3,300 compounds were called active. This excerpt belongs to a sample that is enriched for actives.
growth inhibition by entry:
Value Kind: growth inhibition (%)

1) O=C(CSc1nc2ccccc2c(=O)n1CC1CCCCC1)N1CCOCC1 : 19.6
2) Cn1c(=O)c2c(nc(NCc3ccc4c(c3)OCO4)n2Cc2ccccc2Cl)n(C)c1=O : 20.1
3) CCOc1ccc(NC(=O)c2nn(C)cc2Br)cc1 : 20.1

----------
assay: A549 NSCLC cell proliferation inhibitors – ATP luminescence, human non-small cell lung line, primary screen (AID 371); details: at 10 µM, active compounds read high;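 also: compound exposure lasted 72 h before the ATP read; 0% = untreated cell signal and 100% = no luminescence left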
Screen size: about 3,300 compounds; about 280 (8.5%) were called active. This is one part of a sample in which actives are shown more often than they occur.
Rule: growth inhibition of 30% or more gives class 1; anything lower gives class 0.

1) Cc1ccc2nc(NCc3ccccc3)[nH]c2c1 : class 1
2) C=CCn1c(=O)c(C(=O)NCCN(CC)CC)c(O)c2ccccc21 : class 0
3) Cc1sc(-n2c(C)cc(/C=N/n3cnnc3)c2C)c(C#N)c1C : class 0
4) Cc1noc(NS(=O)(=O)c2ccc(NC(=O)COc3ccccc3)cc2)c1C : class 0
5) CCOC(=O)N1CCC(=C2c3ccc(Cl)cc3CCc3cccnc32)CC1 : class 1
6) CN1CCN(c2ncnc3c2[nH]c2ccc(F)cc23)CC1 : class 0
7) CC1CC(C(F)(F)F)n2ncnc2N1 (stereo not given) : class 0
8) Cc1cc(C)n(S(=O)(=O)/C=C/c2ccccc2)n1 : class 1
9) CN=C(c1ccco1)n1c(=S)nc(-c2ccco2)n(C)c1=S : class 0
10) O=C(O)/C=C/c1ccc(O)c(O)c1 : class 0
11) CC1(C)Cc2c(C#N)c(NCC3CCCO3)nc(-c3ccco3)c2CO1 (stereo not given) : class 0
12) Fc1ccc2[nH]c3c(N4CCSCC4)ncnc3c2c1 : class 1
13) O=C(O)C1CCCCN1S(=O)(=O)c1cccc2nsnc12 (stereo not given) : class 0
14) CCOc1ccc(Cc2nc(N)nc(N)n2)cc1 : class 0
15) O=C(O)C1CSC(CCc2ccccc2)N1 (stereo not given) : class 0
16) CCCC(=O)Nc1nn(CCC)c2nc3ccccc3cc12 : class 0
17) c1ccc2c(c1)[nH]c1c(N3CCN(C4CCCCC4)CC3)ncnc12 : class 1
18) CCCCNC(=O)N1CCOCCOCCN(C(=O)NCCCC)CCOCCOCC1 : class 0
19) CCc1nnc(NC(=O)CSc2nc(C)c3c(c2C#N)CCCC3)s1 : class 1
